These measurements were taken from ChEMBL document CHEMBL5150077.

assay: Microsomal stability in mouse liver microsomes assessed as intrinsic clearance at 1 uM incubated for 60 mins in presence of NADPH regenerating system by LC-MS/MS analysis; format: ADME, Microsome; details: read-out: CLH
Observed Property: microsomal CLint at 1 µM (µL/min/mg)
The response must be a number in µL/min/mg with no trailing unit.

What value of measured microsomal CLint at 1 µM is listed for O=C(Nc1nc2cccc(C3CCC(NC(=O)C4(F)CC4)CC3)n2n1)C1CC1 (configuration not stated) ? 10.6

What value of measured microsomal CLint at 1 µM is listed for O=C(Nc1nc2cccc(C3CCC4(CC3)CCN(C(=O)[C@@H]3CC3(F)F)CC4)n2n1)C1CC1 ? 20.8

What value of measured microsomal CLint at 1 µM is listed for O=C(Nc1nc2cccc(C3CCC4(CC3)CCN(C(=O)[C@@H]3CC3(F)F)C4)n2n1)C1CC1 (some centres not stated) ? 46.5

What value of measured microsomal CLint at 1 µM is listed for O=C(Nc1nc2cccc([C@H]3CC[C@@H](NC(=O)[C@@H]4CC4(F)F)CC3)n2n1)C1CC1 ? 24.2
